Provenance of the data: patent US20080114005A1

melting point: recorded values

Below are worked cases with known answers.
compound	melting point
CCC(C)(Sc1ccc(OCCCn2c(C)nc3ccccc3c2=O)cc1)C(=O)O (stereo not shown) [Example 56]	130 to 132 °C
CCCc1nn(C)c2c(=O)n(CCNc3ccc(OC(C)(C)C(=O)O)cc3)c(CC)nc12 [Example 76]	136 to 138 °C
CCCc1nn(C)c2c(=O)n(CCOc3ccc(OC(C)(C)C(=O)O)cc3)c(CC)nc12 [Example 70]	108 to 110 °C
CCCc1nn(C)c2c(=O)n(CCNc3ccc(OC(C)(C)C(=O)O)cc3)c(C)nc12 [Example 62]	88 to 90 °C
CCc1nc2ccccc2c(=O)n1CCNc1ccc(SC(C)(C)C(=O)O)cc1 [Example 4]	124 to 126 °C
CCCc1nn(CC)c2c(=O)n(CCOc3cccc(OC(C)(C)C(=O)O)c3)c(C)nc12 [Example 93]	147 to 149 °C

In: Give its melting point value. Item: CCCc1nn(CC)c2c(=O)n(CCNc3ccc(SC(C)(C)C(=O)OCC)cc3)c(CC)nc12 [Example 47]
Out: 85 to 87 °C

In: Please do the same for CCCc1nn(CC)c2c(=O)n(CCOc3ccc(SC(C)(C)C(=O)O)cc3)c(C)nc12 [Example 52] as well.
Out: 178 to 180 °C

In: Please do the same for CCCc1nn(C)c2c(=O)n(CCCOc3ccc(OC(C)(C)C(=O)O)cc3)c(CC)nc12 [Example 74] as well.
Out: 124 to 126 °C

In: Please do the same for CCCc1nn(C)c2c(=O)n(CCOc3ccc(OC(C)(C)C(=O)OCC)cc3)c(CC)nc12 [Example 69] as well.
Out: 66 to 68 °C

In: Please do the same for CCCc1nn(C)c2c(=O)n(CCOc3cc(O[C@](C)(CC)C(=O)O)ccc3Cl)c(C)nc12 [Example 102] as well.
Out: 98 to 100 °C

In: Please do the same for CCCc1nn(C)c2c(=O)n(CCCNc3ccc(OC(C)(C)C(=O)O)cc3)c(CC)nc12 [Example 72] as well.
Out: 124 to 126 °C

In: Please do the same for CCCc1nn(C)c2c(=O)n(CCOc3ccc(OC(C)(C)C(=O)O)cc3)c(C)nc12 [Example 60] as well.
Out: 146 to 148 °C

In: Please do the same for CCCc1nn(C)c2c(=O)n(CCOc3cccc(OC(C)(C)C(=O)OCC)c3)c(C)nc12 [Example 88] as well.
Out: 86 to 88 °C

In: Please do the same for Cc1nc2ccccc2c(=O)n1CCCNc1ccc(SC(C)(C)C(=O)O)cc1 [Example 8] as well.
Out: 162 to 164 °C

In: Please do the same for CCCc1nc2ccccc2c(=O)n1CCNc1ccc(SC(C)(C)C(=O)O)cc1 [Example 6] as well.
Out: 162 to 164 °C

----------
Molecular target: human PPARα (Homo sapiens, UniProt Q07869)
Construct: expressed in transfected cells; host or cells: HEK-293
Sequence (Q07869 239-466 limits assumed): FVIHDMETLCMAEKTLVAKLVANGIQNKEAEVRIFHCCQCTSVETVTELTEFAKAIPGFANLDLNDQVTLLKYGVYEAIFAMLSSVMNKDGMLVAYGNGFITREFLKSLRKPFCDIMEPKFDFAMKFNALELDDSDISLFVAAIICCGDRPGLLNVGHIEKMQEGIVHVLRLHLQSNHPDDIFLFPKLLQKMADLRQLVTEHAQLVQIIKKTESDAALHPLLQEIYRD
Assay: in vitro PPARα transactivation, GAL4-LBD luciferase reporter in HEK-293 cells
Format: cell-based
Settings: test compound at 10 μM; luciferase fold activation relative to untreated cells
Everything with PPARα activation lower than 6 is FALSE; everything else, including exactly 6, is TRUE.

compound	target-or-test-system	qualitative-label
CCCc1nn(C)c2c(=O)n(CCOc3cccc(OC(C)(C)C(=O)OCC)c3)c(C)nc12	human PPARα (Homo sapiens, UniProt Q07869)	FALSE
CCCc1nn(C)c2c(=O)n(CCCc3cccc(OC(C)(C)C(=O)O)c3)c(C)nc12.N=C(N)NCCC[C@H](N)C(=O)O	human PPARα (Homo sapiens, UniProt Q07869)	TRUE

In: Reported PPARα activation at or above 6? CCCc1nn(C)c2c(=O)n(CCCc3ccc(OC(C)(CC)C(=O)O)cc3)c(C)nc12 (stereo not drawn)
Out: TRUE

In: Please do the same for CCCc1nn(C)c2c(=O)n(CCOc3cccc(OC(C)(C)C(=O)O)c3)c(C)nc12 as well.
Out: TRUE

In: Please do the same for CCCc1nn(C)c2c(=O)n(CCOc3cc(O[C@](C)(CC)C(=O)O)ccc3Cl)c(C)nc12 as well.
Out: FALSE

In: Please do the same for CCCc1nn(C)c2c(=O)n(CCOc3cccc(OC(C)(CC)C(=O)O)c3)c(C)nc12 (stereo not drawn) as well.
Out: FALSE

----------
Target: human PPARα (Homo sapiens)
Construct: expressed in transfected cells; host or cells: HEK-293
Experiment: in vitro PPARα transactivation, GAL4-LBD luciferase reporter in HEK-293 cells
Type: cell-based
Conditions: test compound at 1 μM; luciferase fold activation relative to untreated cells
Experimental: A number of derivatives of the invention have shown PPAR agonist activity. The following procedure was used for in vitro determination of PPARα, γ and δ transactivation. The ligand binding domain of human PPARγ1, PPARα or PPARδ was fused to the C-terminal end of DNA binding domain of yeast transcription factor GAL4 in eukaryotic expression vector. […] The cells were lysed and luciferase activity was measured using the LucLite kit (Packard USA). […]
measurement-label: PPARα activation
Lab note: record the figure alone, no unit after it.

Below are worked cases with known answers.
compound	target-or-test-system	PPARα activation
CCCc1nn(C)c2c(=O)n(CCOc3cccc(OC(C)(CC)C(=O)O)c3)c(C)nc12 (stereo not drawn)	human PPARα (Homo sapiens)	5.0
CCCc1nn(C)c2c(=O)n(CCOc3cc(O[C@](C)(CC)C(=O)O)ccc3Cl)c(C)nc12	human PPARα (Homo sapiens)	3.9
CCCc1nn(C)c2c(=O)n(CCOc3cccc(OC(C)(C)C(=O)O)c3)c(C)nc12	human PPARα (Homo sapiens)	2.1
CCCc1nn(C)c2c(=O)n(CCCc3ccc(OC(C)(CC)C(=O)O)cc3)c(C)nc12 (stereo not drawn)	human PPARα (Homo sapiens)	6.4
CCCc1nn(C)c2c(=O)n(CCCc3cccc(OC(C)(C)C(=O)O)c3)c(C)nc12.N=C(N)NCCC[C@H](N)C(=O)O	human PPARα (Homo sapiens)	7.1

In: Give its PPARα activation value. Item: CCCc1nn(C)c2c(=O)n(CCOc3cccc(OC(C)(C)C(=O)OCC)c3)c(C)nc12
Out: 1.6

----------
Molecular target: human PPARδ (Homo sapiens)
Construct: expressed in transfected cells; host or cells: HEK-293
Sequence (Q03181 211-439 limits assumed): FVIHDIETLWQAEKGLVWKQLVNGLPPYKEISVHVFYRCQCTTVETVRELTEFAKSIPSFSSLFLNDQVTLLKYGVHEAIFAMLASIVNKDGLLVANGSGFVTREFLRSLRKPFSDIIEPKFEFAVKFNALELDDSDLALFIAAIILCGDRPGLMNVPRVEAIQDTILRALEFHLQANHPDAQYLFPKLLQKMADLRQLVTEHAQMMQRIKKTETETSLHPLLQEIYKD
Test: in vitro PPARδ transactivation, GAL4-LBD luciferase reporter in HEK-293 cells
Format: cell-based
Conditions: test compound at 10 μM; luciferase fold activation relative to untreated cells
Description: The following procedure was used for in vitro determination of PPARα, γ and δ transactivation. The ligand binding domain of human PPARγ1, PPARα or PPARδ was fused to the C-terminal end of DNA binding domain of yeast transcription factor GAL4 in eukaryotic expression vector. […] The cells were lysed and luciferase activity was measured using the LucLite kit (Packard USA). Luciferase activity was measured as fold activation relative to untreated cells.
Everything with PPARδ activation lower than 0.6 is no; everything else, including exactly 0.6, is yes.

Some solved entries appear below for comparison.
molecule	qualitative-label
CCCc1nn(C)c2c(=O)n(CCCc3cccc(OC(C)(C)C(=O)O)c3)c(C)nc12.N=C(N)NCCC[C@H](N)C(=O)O [Example 82]	no
CCCc1nn(C)c2c(=O)n(CCOc3cc(O[C@](C)(CC)C(=O)O)ccc3Cl)c(C)nc12 [Example 102]	yes
CCCc1nn(C)c2c(=O)n(CCOc3cccc(OC(C)(C)C(=O)O)c3)c(C)nc12 [Example 89]	no

In: Reported PPARδ activation at or above 0.6? CCCc1nn(C)c2c(=O)n(CCCc3ccc(OC(C)(CC)C(=O)O)cc3)c(C)nc12 (stereo not drawn) [Example 95]
Out: yes

In: Please do the same for CCCc1nn(C)c2c(=O)n(CCOc3cccc(OC(C)(CC)C(=O)O)c3)c(C)nc12 (stereo not drawn) [Example 98] as well.
Out: yes

----------
measurement-label: melting point

molecule	melting point
CCCc1nn(C)c2c(=O)n(CCOc3cccc(O[C@](C)(CC)C(=O)O)c3)c(C)nc12 [Example 100]	118 to 120 °C
CCCc1nn(C)c2c(=O)n(CCCOc3ccc(OC(C)(C)C(=O)O)cc3)c(C)nc12 [Example 66]	158 to 160 °C
CCCc1nn(CC)c2c(=O)n(CCOc3ccc(SC(C)(C)C(=O)OCC)cc3)c(C)nc12 [Example 51]	85 to 87 °C
CCCc1nn(C)c2c(=O)n(CCCOc3ccc(SC(C)(C)C(=O)OCC)cc3)c(CC)nc12 [Example 39]	52 to 54 °C
CCOC(=O)C(C)(C)Sc1ccc(OCCCn2c(C)nc3ccccc3c2=O)cc1 [Example 25]	162 to 164 °C

In: Give its melting point value. Item: CCOC(=O)C(C)(CC)Sc1ccc(OCCCn2c(C)nc3ccccc3c2=O)cc1 (stereo not shown) [Example 55]
Out: 164 to 166 °C

In: Please do the same for CCCc1nn(C)c2c(=O)n(CCOc3ccc(OC(C)(C)C(=O)O)cc3)cnc12 [Example 58] as well.
Out: 144 to 146 °C

In: Please do the same for CCCc1nn(CC)c2c(=O)n(CCOc3ccc(SC(C)(CC)C(=O)O)cc3)c(C)nc12 (stereo not shown) [Example 54] as well.
Out: 155 to 157 °C
